test system: Aeromonas hydrophila; test: MIC against Gram-negative bacteria: Aeromonas hydrophila; type: cell-based; details: A. hydrophila; 10 h cultivation at 37° C.
Assignment: determine reported MIC for the given substances.
State just the number; it will be interpreted in µg/mL.

// field: MIC; key: PRT956 (NIDDCAFASCTPGSTCIDRVASFSCMCPEGKAGLLCH; listed as Homo sapiens) ; value = 25

// field: MIC; key: PRT969 (LLSPCTPNPCEHGGRCESAPGQLPVCSCPQGWQGPRCQ; listed as Homo sapiens) ; value = 25

// field: MIC; key: PRT903 (DINECASDPCRNGANCTDCVDSYTCTCPAGFSGIHCE; listed as Homo sapiens) ; value = 12.5

// field: MIC; key: PRT992 (LEDMCLSQPCHGDAQCSTNPLTGSTLCLCQPGYSGPTCH; listed as Homo sapiens) ; value = 25

// field: MIC; key: PRT963 (QVDECRSQPCRHGGKCLDLVDKYLCRCPSGTTGVNCE; listed as Homo sapiens) ; value = 50

// field: MIC; key: PRT1043 (HGPNCSQECRCHNGGLCDRFTGQCRCAPGYTGDRCR; listed as Homo sapiens) ; value = 25

// field: MIC; key: PRT948 (DINECLSNPCSSEGSLDCIQLTNDYLCVCRSAFTGRHCE; listed as Homo sapiens) ; value = 25
